# Tested on: Amaranthus retoflexus (AMARE)
# Test description: Pre-emergence herbicidal glasshouse test
# Assay type: in vivo
# Conditions used: 250 g/ha, evaluated after 13 days, five-point scale
Measured quantity: percentage damage caused to the plant, AMARE

>  <Compound>
FC(F)c1ncc2c(Oc3ncc(Cl)cn3)cccc2n1

>  <Result>
5 (5=81-100%)

$$$$
>  <Compound>
Cc1ccc(Oc2ncc(Cl)cn2)c2cnc(C(F)(F)F)nc12 [Compound 1.028]

>  <Result>
5 (5=81-100%)

$$$$
>  <Compound>
FC(F)(F)c1ccc2c(Oc3ncc(Br)cn3)ccc(Br)c2n1

>  <Result>
1 (1=0-20%)

$$$$
>  <Compound>
Cc1cnc(Oc2cccc3nc(C(F)(F)Cl)ncc23)nc1

>  <Result>
5 (5=81-100%)

$$$$
>  <Compound>
FC(F)(F)c1ncc2c(Oc3ncc(Br)cn3)cccc2n1

>  <Result>
5 (5=81-100%)

$$$$
>  <Compound>
FC(F)c1ncc2c(Oc3ncc(Br)cn3)ccc(Cl)c2n1

>  <Result>
1 (1=0-20%)

$$$$
>  <Compound>
COc1ncc2c(Oc3ncc(Cl)cn3)cccc2n1

>  <Result>
5 (5=81-100%)

$$$$
>  <Compound>
N#Cc1ccc(Oc2ncc(Cl)cn2)c2cnc(C(F)(F)F)nc12

>  <Result>
1 (1=0-20%)

$$$$
>  <Compound>
FC(F)(F)c1ccc2c(Oc3ncc(Cl)cn3)ccc(Br)c2n1

>  <Result>
1 (1=0-20%)

$$$$
